- Tested on: p21 induction in HCT116 cells
- PROCEDURE SUMMARY: p21 induction in HCT116 cells
- Format: cell-based
- RECORDED CONDITIONS: Homo sapiens, HCT-116, 24 h, HCT116 cells, 24 h compound incubation; read-out: P21_EC50
Reported EC50 values are given for each entry in this list.

Reference set (3 entries):
{"MOLECULE": "CCc1c(N2CCN(C(=O)c3ncnc(C)c3O)[C@H]3CC[C@@H]32)c(=O)c2nc(N(C)C)cnc2n1CC(=O)NC12CC(C(F)(F)F)(C1)C2", "EC50": "> 5000 nM"}
{"MOLECULE": "CCc1c(N2CCN(C(=O)c3ncnc(C)c3O)CC2)c(=O)c2nc(-c3cnn(C)c3)cnc2n1CC(=O)Nc1ccc(C(F)(F)F)cc1Cl", "EC50": "> 5000 nM"}
{"MOLECULE": "CCc1c(N2CCN(C(=O)c3ncnc(C)c3O)[C@H]3CC[C@@H]32)c(=O)c2nc(N(C)CCO)cnc2n1CC(=O)Nc1ccc(C(F)(F)F)cc1Cl", "EC50": "< 500 nM"}

Given the entry `[2H]C([2H])([2H])N(c1nc2c(=O)c(N3CCN(C(=O)c4ncnc(C)c4O)[C@H]4CC[C@@H]43)c(CC)n(CC(=O)Nc3ccc(C(F)(F)F)cc3F)c2nc1C)C([2H])([2H])[2H]` , what EC50 was observed with p21 induction in HCT116 cells?
< 500 nM

One more molecule: CCc1c(N2CCN(C(=O)c3ncnc(C)c3O)[C@H]3CCC[C@H]32)c(=O)c2nc(N(C)C)cnc2n1CC(=O)Nc1ccc(C(F)(F)F)cc1Cl (single isomer, unassigned)
> 5000 nM

Same lookup for `CCc1c(N2CCN(C(=O)c3ncnc(C)c3O)CC2)c(=O)c2nc(N3CCCC3)cnc2n1CC(=O)Nc1ccc(C(F)(F)F)cc1Cl` , please.
500 to 2000 nM

What do you have for CCc1c(N2CCN(C(=O)c3ncnc(C)c3O)CC2)c(=O)c2nc([C@H]3CC3(F)F)cnc2n1CC(=O)Nc1ccc(C(F)(F)F)cc1Cl (single isomer, unassigned) ?
> 5000 nM

Continue with `CCc1c(N2CCN(C(=O)c3ncnc(C)c3O)CC2)c(=O)c2nc(C3=CCN(C(=O)OC)C3)cnc2n1CC(=O)Nc1ccc(C(F)(F)F)cc1Cl`
> 5000 nM

Also, `CCc1c(N2CCN(C(=O)c3ncnc(C)c3O)CC2)c(=O)c2nc(/C=C/C3CCC3)cnc2n1CC(=O)Nc1ccc(C(F)(F)F)cc1Cl` please.
500 to 2000 nM

Could you do the same for `CCc1c(N2CCCN(C(=O)c3ncnc(C)c3O)CC2)c(=O)c2nc(N(C)C)cnc2n1CC(=O)Nc1ccc(C(F)(F)F)cc1Cl` , please?
> 5000 nM

Also `CCc1c(N2CCN(C(=O)c3ncnc(C)c3O)CC2)c(=O)c2nc(C(C)(C)F)cnc2n1CC(=O)Nc1ccc(C(F)(F)F)cc1Cl` ?
2000 to 5000 nM
